Format: in vivo, human
Condition Parameters: human, plasma, oral, 240 mg/m2, Cmax, median (range), Capsule, 240 mg/m^2 (n=13), Day 1 Cycle 1, with food
Observed Property: Cmax (ng/mL)

Compound: O=C1NC(=O)[C@@H](c2cn3c4c(cccc24)CCC3)[C@@H]1c1c[nH]c2ccccc12 [Tivantinib]
Units Text: ng/mL
Quantitative Readout: 1300

* * *

Assay type: in vivo, human
Condition Parameters: human, plasma, oral, 200 mg/m2, Cmax, median (range), Capsule, 200 mg/m^2 (n=7), Day 1 Cycle 1, with food
Observed Property: Cmax (ng/mL)

Compound: O=C1NC(=O)[C@@H](c2cn3c4c(cccc24)CCC3)[C@@H]1c1c[nH]c2ccccc12 [Tivantinib]
Quantitative Readout: 2180
